# target.of.assay: UniProt:O60885
# assay.summary: BRD4 inhibition (IC50)
# Format: binding
# Design: BRD4-1
# assay.setup: Table 3; read-out: BRD4 (IC50)
This listing pairs compounds with measured pIC50.
Interpret pIC50 as the negative base-10 log of the concentration measured in mol/L.

Sample answers from the record:
// query Tell me reported pIC50 for Cc1cnc(Nc2ccc(C3CCN(C)CC3)c(F)c2)nc1Nc1ccc(Cl)c(CS(=O)(=O)C(C)(C)C)c1 , tested with UniProt:O60885.
// result 6.15

// query Param item: Cc1cnc(Nc2ccc(N3CCN(C)CC3)c(F)c2)nc1Nc1cccc(CS(=O)(=O)C(C)(C)C)c1
// result 5.25

Proceed to the following item.
// query Value wanted: pIC50 (UniProt:O60885) of entry Cc1cnc(Nc2ccc(C3CCN(C)CC3)c(F)c2)nc1Nc1cccc(CS(=O)(=O)C(C)(C)C)c1
// result 6.15

Data provenance: patent US12187686B2
